ASSAYED_SYSTEM: Nanoluciferase-BRD9 fusion protein (3×FLAG-NLuc-BRD9) in SYO-1 cells (Homo sapiens (Human))
MEASUREMENT_NOTES: SYO1 BRD9 NanoLuc degradation assay
Type: cell-based
DETAILS: SYO-1 cells, 6 hours, Table 6A
EXPERIMENTAL_ENDPOINT: IC50

As a guide, the following entries are already answered.
compound="CNC(=O)N1CCc2c(c(-c3cc(OC)c(CN(C)CC(=O)NCCOCCOc4cccc5c4C(=O)N(C4CCC(=O)NC4=O)C5=O)c(OC)c3)cn(C)c2=O)C1 (centres unmarked) [Compound D24]" experimental_endpoint=IC50 result="> 1000 nM"
compound="CNC(=O)N1CCc2c(-c3cc(OC)c(CN4CCC5(CC4)CN(C(=O)CCCOc4cccc6c4C(=O)N(C4CCC(=O)NC4=O)C6=O)CCO5)c(OC)c3)cn(C)c(=O)c2C1 (centres unmarked) [Compound D3]" experimental_endpoint=IC50 result="> 100 nM"

Problem: Sample COc1cc(-c2cn(C)c(=O)c3c2CCN(C(=O)NCCOCCOCCNc2cccc4c2CN(C2CCC(=O)NC2=O)C4=O)C3)cc(OC)c1CN(C)C (centres unmarked) [Compound D5, formic acid] — what was its IC50?
Result: > 1000 nM

Problem: Sample COc1cc(-c2cn(C)c(=O)c3c2CCN(C(=O)NCCOCCNc2cccc4c2C(=O)N(C2CCC(=O)NC2=O)C4=O)C3)c(OC)cc1CN(C)C (centres unmarked) [Compound D14, formic acid] — what was its IC50?
Result: > 100 nM

Problem: Sample COc1cc(-c2cn(C)c(=O)c3c2CCN(C(=O)CCCCCOc2cccc4c2C(=O)N(C2CCC(=O)NC2=O)C4=O)C3)cc(OC)c1CN(C)C (centres unmarked) [Compound D20] — what was its IC50?
Result: > 1000 nM

Problem: Sample COc1cc(-c2cn(C)c(=O)c3c2CCN(C(=O)NCCCCCOc2cccc4c2C(=O)N(C2CCC(=O)NC2=O)C4=O)C3)cc(OC)c1CN(C)C (centres unmarked) [Compound D18] — what was its IC50?
Result: > 10 nM

Problem: Sample COc1cc(-c2cn(C)c(=O)c3c2CCN(C(=O)NCCOCCNc2cccc4c2C(=O)N(C2CCC(=O)NC2=O)C4=O)C3)cc(OC)c1CN(C)C (centres unmarked) [Compound D17, formic acid] — what was its IC50?
Result: > 10 nM

====

ASSAYED_SYSTEM: Nanoluciferase-BRD9 fusion protein (3×FLAG-NLuc-BRD9) in SYO-1 cells (Homo sapiens (Human), UniProt Q9H8M2)
Sequence (Q9H8M2 whole entry, the tested form may be a part): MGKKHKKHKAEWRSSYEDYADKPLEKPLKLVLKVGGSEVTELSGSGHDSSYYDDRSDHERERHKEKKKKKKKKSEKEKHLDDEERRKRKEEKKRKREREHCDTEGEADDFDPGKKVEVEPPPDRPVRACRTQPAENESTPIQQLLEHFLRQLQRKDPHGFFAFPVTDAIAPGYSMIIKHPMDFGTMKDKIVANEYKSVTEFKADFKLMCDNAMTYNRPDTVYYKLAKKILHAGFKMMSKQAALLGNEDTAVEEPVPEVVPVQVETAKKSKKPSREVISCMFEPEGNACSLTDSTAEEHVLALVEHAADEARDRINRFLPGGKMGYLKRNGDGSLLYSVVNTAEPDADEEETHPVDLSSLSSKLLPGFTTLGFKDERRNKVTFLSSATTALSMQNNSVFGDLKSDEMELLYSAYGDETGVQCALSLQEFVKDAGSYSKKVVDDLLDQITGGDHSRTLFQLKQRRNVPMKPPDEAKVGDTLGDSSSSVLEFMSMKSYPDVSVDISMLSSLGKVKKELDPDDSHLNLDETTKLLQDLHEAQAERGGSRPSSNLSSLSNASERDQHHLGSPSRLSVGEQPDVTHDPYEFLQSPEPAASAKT
MEASUREMENT_NOTES: SYO1 BRD9 NanoLuc degradation assay
Type: cell-based
DETAILS: SYO-1 cells, 6 hours, Table 6A
pIC50: −log10 of the molar value.
EXPERIMENTAL_ENDPOINT: pIC50

As a guide, the following entries are already answered.
compound="CNC(=O)N1CCc2c(-c3cc(OC)c(CN4CCC5(CC4)CN(C(=O)CCCCOc4cccc6c4C(=O)N(C4CCC(=O)NC4=O)C6=O)CCO5)c(OC)c3)cn(C)c(=O)c2C1 (stereo not drawn) [Compound D4, formic acid]" result="< 8.00"
compound="COc1cc(-c2cn(C)c(=O)c3c2CCN(C(=O)NCCCCCCCCCC(=O)N[C@H](C(=O)N2C[C@H](O)C[C@H]2C(=O)NCc2ccc(-c4scnc4C)cc2)C(C)(C)C)C3)cc(OC)c1CN(C)C [Compound D38]" result="< 8.00"

Problem: Sample CNC(=O)N1CCc2c(-c3cc(OC)c(CN(C)CC(=O)NCCOCCOc4cccc5c4C(=O)N(C4CCC(=O)NC4=O)C5=O)c(OC)c3)cn(C)c(=O)c2C1 (stereo not drawn) [Compound D13] — what was its pIC50?
Result: < 6.00

====

ASSAYED_SYSTEM: BRD9 bromodomain (Homo sapiens (Human))
Sequence (Q9H8M2 133-239): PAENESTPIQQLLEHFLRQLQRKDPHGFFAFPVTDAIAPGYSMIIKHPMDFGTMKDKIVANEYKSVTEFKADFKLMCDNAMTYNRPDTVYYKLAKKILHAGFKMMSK
MEASUREMENT_NOTES: BRD9 bromodomain TR-FRET competition binding assay
EXPERIMENTAL_ENDPOINT: IC50

Problem: Sample COc1cc(-c2cn(C)c(=O)c3c2CCN(C(=O)NCCOCCNc2cccc4c2C(=O)N(C2CCC(=O)NC2=O)C4=O)C3)c(OC)cc1CN(C)C (stereo not shown) — what was its IC50?
Result: > 10 nM

Problem: Sample "COc1cc(-c2cn(C)c(=O)c3c2CCN(C(=O)NCCOCCOCC(=O)N[C@H](C(=O)N2C[C@H](O)C[C@H]2C(=O)NCc2ccc(-c4scnc4C)cc2)C(C)(C)C)C3)cc(OC)c1CN(C)C" — what was its IC50?
Result: > 10 nM

Problem: Sample "CCOC(=O)N1CCc2c(-c3cc(OC)c(CN(C)C)c(OC)c3)cn(C)c(=O)c2C1" — what was its IC50?
Result: > 1000 nM

Problem: Sample "COc1cc(-c2cn(C)c(=O)c3c2CCN(C(N)=O)C3)cc(OC)c1CN(C)C" — what was its IC50?
Result: > 10 nM

====

ASSAYED_SYSTEM: Nanoluciferase-BRD9 fusion protein (3×FLAG-NLuc-BRD9) in SYO-1 cells (Homo sapiens (Human), UniProt Q9H8M2)
MEASUREMENT_NOTES: SYO1 BRD9 NanoLuc degradation assay
Assay type: cell-based
DETAILS: SYO-1 cells, 6 hours, Table 6C
pIC50: −log10 of the molar value.
molecules and their reported pIC50

As a guide, the following entries are already answered.
molecule="COc1cc(-c2cn(C)c(=O)c3c2COC3)cc(OC)c1CN1CCC2(CC1)CN(c1ccc3c(c1)C(=O)N(C1CCC(=O)NC1=O)C3)C2 (stereo not shown)" result="> 8.00"
molecule=COc1cc(-c2cn(C)c(=O)c3c2CCC3)cc(OC)c1CN1CCC2(CC1)CN(c1cccc(N3CCC(=O)NC3=O)c1)C2 result="≤ 6.00"
molecule="CNC(=O)N1CCc2c(-c3cc(OC)c(CN4[C@H](C)CN(CCC5CCN(c6ccc7c(c6)CN(C6CCC(=O)NC6=O)C7=O)CC5)C[C@H]4C)c(OC)c3)cn(C)c(=O)c2C1 (stereo partly shown)" result="> 8.00"

Attention now shifts to the item below.
Problem: Sample CNC(=O)N1CCc2c(-c3cc(OC)c(CN4CCN(CCC5CCN(c6ccc7c(c6)C(=O)N(C6CCC(=O)NC6=O)C7)CC5)CC4COC)c(OC)c3)cn(C)c(=O)c2C1 (stereo not shown) — what was its pIC50?
Result: > 8.00

====

compounds and their reported pIC50
ASSAYED_SYSTEM: Nanoluciferase-BRD9 fusion protein (3×FLAG-NLuc-BRD9) in SYO-1 cells (Homo sapiens (Human), UniProt Q9H8M2)
MEASUREMENT_NOTES: SYO1 BRD9 NanoLuc degradation assay
Format: cell-based
DETAILS: SYO-1 cells expressing 3×FLAG-NLuc-BRD9, 6 hours incubation, top dose 1 μM
Method: Procedure: A stable SYO-1 cell line expressing 3×FLAG-NLuc-BRD9 was generated. On day 0 cells were seeded in 30 μL media into each well of 384-well cell culture plates. The seeding density was 8000 cells/well. […] Nanoluciferase activity was measured by adding 15 μL of freshly prepared Nano-Glo Luciferase Assay Reagent (Promega N1130), shaking the plates for 10 minutes and reading the bioluminescence using an EnVision reader. […]
pIC50: −log10 of the molar value.

compound="CNC(=O)N1CCc2c(-c3cc(OC)c(CN4CCC(CCN5CCN(c6ccc7c(c6)C(=O)N(C6CCC(=O)NC6=O)C7)CC5)CC4)c(OC)c3)cn(C)c(=O)c2C1 (centres unmarked) [Compound D69]" result="> 8.00"
compound="COc1cc(-c2cn(C)c(=O)c3c2CCCC3)cc(OC)c1CN1CC(CN2CCC3(CC2)CN(c2ccc4c(c2)C(=O)N(C2CCC(=O)NC2=O)C4)C3)C1 (centres unmarked) [Compound D301]" result="> 8.00"
compound="CNC(=O)N1CCc2c(-c3cc(OC)c(CN4CC5CC4CC5CN4CCN(c5ccc6c(c5)C(=O)N(C5CCC(=O)NC5=O)C6=O)CC4)c(OC)c3)cn(C)c(=O)c2C1 (centres unmarked) [Compound D129]" result="7.00 to 8.00"
compound="COc1cc(-c2cn(C)c(=O)c3c2CCN(C(=O)NC2C[C@@H]4CN(CCOc5ccc6c(c5)C(=O)N(C5CCC(=O)NC5=O)C6=O)C[C@H]24)C3)cc(OC)c1CN(C)C (some centres unmarked) [Compound D249]" result="≤ 6.00"

Problem: Sample CNC(=O)N1CCc2c(-c3cc(OC)c(CN4CCC(CCN5CCC(c6ccc7c(c6)CN(C6CCC(=O)NC6=O)C7=O)CC5)CC4)c(OC)c3)cn(C)c(=O)c2C1 (centres unmarked) [Compound D68] — what was its pIC50?
Result: > 8.00

====

compounds and their reported pIC50
ASSAYED_SYSTEM: Nanoluciferase-BRD9 fusion protein (3×FLAG-NLuc-BRD9) in SYO-1 cells (Homo sapiens (Human))
MEASUREMENT_NOTES: SYO1 BRD9 NanoLuc degradation assay
Type: cell-based
DETAILS: SYO-1 cells expressing 3×FLAG-NLuc-BRD9, 6 hours incubation, top dose 1 μM
pIC50: −log10 of the molar value.

As a guide, the following entries are already answered.
compound="COc1cc(-c2cn(C)c(=O)c3c2CCN(C(=O)NCCN2CCN(c4ccc5c(c4)C(=O)N(C4CCC(=O)NC4=O)C5=O)CC2)C3)cc(OC)c1CN(C)C (centres unmarked)" experimental_endpoint=pIC50 result="7.00 to 8.00"
compound="COc1cc(-c2cn(C)c(=O)c3c2CN(C(=O)N(C)C)CC3)cc(OC)c1CN(C)CCOCCN1CCN(c2ccc3c(c2)C(=O)N(C2CCC(=O)NC2=O)C3=O)CC1 (centres unmarked)" experimental_endpoint=pIC50 result="≤ 6.00"
compound="COc1cc(-c2cn(C)c(=O)c3c2CCN(C(=O)NC2CCC4CN(CCCCN5CCN(c6ccc7c(c6)C(=O)N(C6CCC(=O)NC6=O)C7=O)CC5)CC42)C3)cc(OC)c1CN(C)C (centres unmarked)" experimental_endpoint=pIC50 result="6.00 to 7.00"
compound="CNC(=O)N1CCc2c(-c3cc(OC)c(CN4CCC5(CC4)CC(Oc4ccc6c(c4)C(=O)N(C4CCC(=O)NC4=O)C6=O)C5)c(OC)c3)cn(C)c(=O)c2C1 (centres unmarked)" experimental_endpoint=pIC50 result="> 8.00"
compound="CNC(=O)N1CCc2c(-c3cc(OC)c(CN4CCN(CC5CCN(c6ccc7c(c6)C(=O)N(C6CCC(=O)NC6=O)C7)CC5)CC4)c(OC)c3)cn(C)c(=O)c2C1 (centres unmarked)" experimental_endpoint=pIC50 result="> 8.00"

Problem: Sample COc1cc(-c2cn(C)c(=O)c3c2CCN(C(=O)NCC2CC4(C2)CN(CCCOc2ccc5c(c2)C(=O)N(C2CCC(=O)NC2=O)C5=O)C4)C3)cc(OC)c1CN(C)C (centres unmarked) — what was its pIC50?
Result: 6.00 to 7.00

Problem: Sample CNC(=O)N1CCc2c(-c3cc(OC)c(CN4CCC(CCCN5CCN(C6CCC(=O)NC6=O)C(=O)C5)CC4)c(OC)c3)cn(C)c(=O)c2C1 (centres unmarked) — what was its pIC50?
Result: 6.00 to 7.00

Problem: Sample COc1cc(-c2cn(C)c(=O)c3c2CCN(C(=O)NCC2CC24CCN(CCCCN2CCN(c5ccc6c(c5)C(=O)N(C5CCC(=O)NC5=O)C6=O)CC2)CC4)C3)cc(OC)c1CN(C)C (centres unmarked) — what was its pIC50?
Result: 6.00 to 7.00

Problem: Sample CNC(=O)N1CCc2c(-c3cc(OC)c(CN4CCC(C(C)(C)N5CCC6(CC5)CC(Oc5ccc7c(c5)C(=O)N(C5CCC(=O)NC5=O)C7=O)C6)CC4)c(OC)c3)cn(C)c(=O)c2C1 (centres unmarked) — what was its pIC50?
Result: > 8.00

Problem: Sample CNC(=S)N1CCc2c(-c3cc(OC)c(CN4CCC(CCN5CCN(c6ccc7c(c6)CN(C6CCC(=O)NC6=O)C7=O)CC5)CC4)c(OC)c3)cn(C)c(=O)c2C1 (centres unmarked) — what was its pIC50?
Result: > 8.00

Problem: Sample CNC(=O)N1CCc2c(-c3cc(OC)c(CN(C)CC45CC(C(=O)NCCCCCOc6ccc7c(c6)C(=O)N(C6CCC(=O)NC6=O)C7=O)(C4)C5)c(OC)c3)cn(C)c(=O)c2C1 (centres unmarked) — what was its pIC50?
Result: 6.00 to 7.00
